Test system: Puccinia recondita tritici (PUCCRT)
assayText: Leaf rust of wheat foliar protectant test
Format: in vivo
particulars: 200 ppm foliar, inoculated one day after treatment, read-out: Activity against fungal diseases PUCCRT
valueType: pest or weed control at 200 ppm

Worked set:
Fc1ccc(F)c2c(NCCc3ccc(Oc4cc(C(F)(F)F)ncn4)cc3)ncnc12; 80 to 100%
COc1ccc(CCNc2ncnc3c(F)ccc(F)c23)cc1Br; 80 to 100%
COc1ccc2c(c1)CC(Nc1ncnc3c(F)ccc(F)c13)C2 (centres unmarked); 80 to 100%
Fc1cc(Oc2cc(C(F)(F)F)ccn2)ccc1CCNc1ncnc2c(F)ccc(F)c12; 80 to 100%
Cc1cc(CCNc2ncnc3c(F)cc(F)c(F)c23)ccc1O; 50 to 79%
COc1cc(C)c(CCNc2ncnc3c(F)ccc(F)c23)cc1C; 80 to 100%
COc1ccc(CCNc2ncnc3c(F)ccc(F)c23)c(F)c1; 80 to 100%

For reference, reported pest or weed control at 200 ppm for Oc1ccc(CCNc2ncnc3c(F)ccc(F)c23)cc1 stands at 50 to 79%
